- measurement protocol: growth suppression of beta-catenin knockout HCT116, pilot screen, human colon tumor cells (AID 823);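 further: 0% = wells killed by 20 µM Hyamine and 100% = untreated DMSO cell wells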
- condition info: CellTiter-Glo, 60 h, at 10 µM, stronger effect = lower value
Records with an inconclusive call do not appear.
measured endpoint: viability (%)
Respond with the bare value in %.

Q. I would be grateful if you could share the reported viability for `CCCCCn1c(=O)[nH]c2cc(C(=O)NCCCN3CCC(C)CC3)ccc2c1=O` .
A. 56.6

Q. I would be grateful if you could share the reported viability for O=C(NC1CCCCC1)C1CC(=O)N(c2ccc(Cl)cc2)C1 (stereo unspecified) .
A. 95.5

Q. I would be grateful if you could share the reported viability for `O=C(COC(=O)c1cc2ccccc2o1)c1ccccc1` .
A. 96.9

Q. I would be grateful if you could share the reported viability for `CCn1c(C)nc2cc(S(=O)(=O)N3CCCC3)ccc21` .
A. 94.3

Q. I would be grateful if you could share the reported viability for `O=P(O)(CCc1ccncc1)CN1CCCCC1` .
A. 97.3

Q. I would be grateful if you could share the reported viability for CSCCC(/C(O)=C(\C#N)c1nc2ccccc2[nH]1)N1C(=O)c2ccccc2C1=O (stereo unspecified) .
A. 89.8

Q. I would be grateful if you could share the reported viability for `COC(=O)c1ccc(Nc2cc(C)nc3nc(C)nn23)cc1` .
A. 97.3

Q. I would be grateful if you could share the reported viability for CCCCS(=O)CC(COc1ccc(Cl)cc1)OC(=O)c1ccccc1 (stereo unspecified) .
A. 76.1

Q. I would be grateful if you could share the reported viability for CC(c1cccnc1)N(C(=O)Nc1ccccc1)C1CCCCC1 (stereo unspecified) .
A. 92.1

Q. I would be grateful if you could share the reported viability for `CCCN(CCC)CCCNC(=O)c1cc2c(=O)n(C)c3ccccc3c2n1C` .
A. 72.5

Q. I would be grateful if you could share the reported viability for `CCc1cc(C(=O)COc2ccccc2F)c(O)cc1O` .
A. 96.1

Q. I would be grateful if you could share the reported viability for `C=CCNC(=O)COc1ccc(Br)cc1Cl` .
A. 99

Q. I would be grateful if you could share the reported viability for `COc1cc(C(=O)Nc2cc(-c3nc4cc(C)ccc4o3)ccc2C)cc(OC)c1OC` .
A. 97

Q. I would be grateful if you could share the reported viability for CC1=C(C(=O)N(C)C)C(c2cccc(Cl)c2)NC(=O)N1 (stereo unspecified) .
A. 99.1

Q. I would be grateful if you could share the reported viability for `CCn1c(SCC(=O)NCCOc2ccccc2)nc2ccccc2c1=O` .
A. 93.8

Q. I would be grateful if you could share the reported viability for `O=c1c2ccccc2nc(SCc2nnc(-c3ccccc3)o2)n1-c1ccccc1` .
A. 75.4

Q. I would be grateful if you could share the reported viability for `Cc1c(C(=O)N2CCN(C(=O)c3ccco3)CC2)sc2nc(-c3ccc(F)cc3)cn12` .
A. 91.8

Q. I would be grateful if you could share the reported viability for `CCN(CC)S(=O)(=O)c1cccc(-c2nnc(SCc3nnc(-c4cccs4)o3)n2N)c1` .
A. 86.5

Q. I would be grateful if you could share the reported viability for Cc1cccc(OCc2nc(C#N)c(N3CC(C)CC(C)C3)o2)c1 (stereo unspecified) .
A. 63.5

Q. I would be grateful if you could share the reported viability for `CC(=O)c1c(C)nn(C(=O)c2cccs2)c1C` .
A. 91

Q. I would be grateful if you could share the reported viability for O=C(O)CCCCCN1C(=O)C(=O)/C(=C(/O)c2ccccc2)C1c1ccccc1 (stereo unspecified) .
A. 100

Q. I would be grateful if you could share the reported viability for `CCOC(=O)N1CCN(CC(=O)c2ccc3c(c2)CCN3C(C)=O)CC1` .
A. 100

Q. I would be grateful if you could share the reported viability for `Cc1ccc(Cn2c3ccccc3c3cn[nH]c(=O)c32)cc1` .
A. 101

Q. I would be grateful if you could share the reported viability for `CC(C)(Oc1ccc(Cl)cc1)C(=O)NCc1ccco1` .
A. 87.2

Q. I would be grateful if you could share the reported viability for CC(=O)N1C(C(=O)O)CSC1c1ccc(C)cc1 (stereo unspecified) .
A. 95.3

Q. I would be grateful if you could share the reported viability for `CCCCSc1nc(N)c(NC(=O)c2ccco2)c(=O)[nH]1` .
A. 101

Q. I would be grateful if you could share the reported viability for O=c1c2ccccc2c2ccccc2c(=O)n1CC1CCCO1 (stereo unspecified) .
A. 101

Q. I would be grateful if you could share the reported viability for `O=C(NCCCN1CCOCC1)c1cc(-c2ccc3c(c2)OCO3)nc2ccccc12` .
A. 92.8

Q. I would be grateful if you could share the reported viability for CCCOc1ccc(N2CC(C(=O)Nc3ccccc3OC)CC2=O)cc1 (stereo unspecified) .
A. 105

Q. I would be grateful if you could share the reported viability for `CCCN(CCC(=O)Nc1ccccc1F)CC1CC1` .
A. 99.1

Q. I would be grateful if you could share the reported viability for `COc1ccc(OC)c2sc(NC(=O)C(C)C)nc12` .
A. 105

Q. I would be grateful if you could share the reported viability for `Cc1ccc(NC(=O)C2CCN(S(=O)(=O)c3cccc4cccnc34)CC2)nc1` .
A. 88.1

Q. I would be grateful if you could share the reported viability for `CCOC(=O)c1cc2c(=O)n3ccccc3nc2n(CCCOC)c1=NC(=O)c1cccnc1` .
A. 112

Q. I would be grateful if you could share the reported viability for `CC1(C)CC(=O)N(CC(=O)O)c2ccccc2S1(=O)=O` .
A. 99.8

Q. I would be grateful if you could share the reported viability for `CCOC(=O)N1CCN(c2c(N3CCOCC3)c(=O)c2=O)CC1` .
A. 106

Q. I would be grateful if you could share the reported viability for `C=CCn1c(-c2ccc(N)cc2)nc2ccccc21` .
A. 93.3

Q. I would be grateful if you could share the reported viability for `CC(=O)c1ccc(N2CCN(C(=O)c3cc4c(-c5ccccc5F)nn(C)c4s3)CC2)cc1` .
A. 66

Q. I would be grateful if you could share the reported viability for `O=C(NCCC1=CCCCC1)C1CCN(c2nnc(-n3cccc3)s2)CC1` .
A. 85.2

Q. I would be grateful if you could share the reported viability for `CCOC(=O)C1CCN(C(=O)COc2cc(C)c(Br)c(C)c2)CC1` .
A. 94.4

Q. I would be grateful if you could share the reported viability for COc1cccc(C2CC(=O)NC(SC)=C2C#N)c1 (stereo unspecified) .
A. 98.7

Q. I would be grateful if you could share the reported viability for `CCN(CC)S(=O)(=O)c1ccc(Cl)c(C(=O)NC2CCCC2)c1` .
A. 92.9

Q. I would be grateful if you could share the reported viability for CC(NS(=O)(=O)c1ccc(Br)cc1)C(c1cccs1)N1CCN(C)CC1 (stereo unspecified) .
A. 78.2

Q. I would be grateful if you could share the reported viability for `O=C(Cc1cc(=O)[nH]c(=O)[nH]1)N1CCN(C(=O)c2ccco2)CC1` .
A. 95.6

Q. I would be grateful if you could share the reported viability for `Cc1ccc(N)c(C(O)(C(F)(F)F)C(F)(F)F)c1` .
A. 105

Q. I would be grateful if you could share the reported viability for `Cc1ccc(C)c(C(=O)N(Cc2nc(-c3ccc(Cl)cc3)no2)C(C)C)c1` .
A. 56.5

Q. I would be grateful if you could share the reported viability for `CC(=O)c1sc(NC(=O)c2ccco2)nc1-c1ccccc1` .
A. 103
